- SYSTEM NAME: T1, human tissue factor (TF), membrane-bound on cells (human, UniProt P13726 33-295)
- T1 construct: whole, on cells; also called cellular TF
- TEST: FACS, A431 cells
Hi there, I'd appreciate the recorded EC50 for every entry that follows.
Give bare numbers, in nM.

Some solved cases for reference:
BINDER	UNIT	EC50
anti-TF HuMab 044 (antibody, V domains shown, Human monoclonal antibody from HuMab mice) VH: QVQLVESGGGVVQPGRSLRLSCAASGFTFSDYAMHWVRQAPGKGLEWVAVIPYDGDNKYYADSVKGRFTISRDNSKNTLYLQMNSLRAEDTAVYYCAREDWGLEVDYWGQGALVTVSS VL: AIQLTQSPSSLSASVGDRVTITCRASQGINSALAWYQQKPGKAPKLLIYDASSLESGVPSRFSGSGSGTDFTLTISSLQPEDFATYYCQQFNSYPLTFGGGTKVEIK	nM	1.45
anti-TF HuMab 025 (antibody, V domains shown, Human monoclonal antibody from HuMab mice) VH: QVQLVESGGGVVQPGRSLRLSCAASGFTFSRYAMHWVRQAPGKGLEWVAVISNDGYNDYYADSVKGRFTVSRDNSKNTLYLQMNSLRAEDTAVYYCARDGQLGRGYFDYWGQGTLVTVSS VL: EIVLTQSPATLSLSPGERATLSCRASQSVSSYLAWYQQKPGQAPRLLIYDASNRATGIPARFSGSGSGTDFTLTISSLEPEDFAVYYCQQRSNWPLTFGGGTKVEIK	nM	5.19

// EC50 lookup, key: anti-TF HuMab 092-A09 (antibody, V domains shown, Human monoclonal antibody from HuMab mice) VH: EVQLLESGGGLVQPGGSLRLSCAASGFTFNNYAMSWVRQAPGKGLEWVSSISGSGGRTYYADSVKGRFTISRDNSKNTLFLQMNSLRAEDTAVYYCAKTPWGYYFDYWGQGTLVTVSS VL: DIQMTQSPSSLSASVGDRVTITCRASQGISSRLAWYQQKPEKAPKSLIYAASSLQSGVPSRFSGSGSGTDFTLTISSLQPEDFATYYCQQYNSYPYTFGQGTKLEIK
0.83
